System: NCI-H322M lung
Assay explanation: NCI tumour cell line growth inhibition, 384-well format; in the data active means GI50 below about 0.43 µM; inactive means the rest
Your reply should match one of these outcome classes. active, inactive

Smiles repr	Assigned class
C[C@@H](Oc1ccc(Oc2cnc3ccc(Cl)cc3n2)cc1)C(=O)O	inactive
CCC(CC)c1cc(N[C@H]2CC[C@H](N)C2)n2nccc2n1	active
Cc1cncc(-c2nc(NCCc3c[nH]c4ccccc34)c3ncn(C(C)C)c3n2)c1	inactive

// next entry
Asked: Look up the recorded call for C[C@]12CCCN1CC1=NNC(=O)c3cc(F)cc4[nH]c2c1c34 in this test.
Given back: inactive

---

Tested on: NCI-H226 lung
Assay explanation: NCI tumour cell line growth inhibition, 384-well format
Observed property: TGI (µM)
API: value field is a number in µM; no unit string.

Smiles repr	Recorded value
CCC(CC)c1cc(N[C@H]2CC[C@H](N)C2)n2nccc2n1	0.513

Asked: Could you share which TGI value was measured for Cc1cncc(-c2nc(NCCc3c[nH]c4ccccc34)c3ncn(C(C)C)c3n2)c1 ?
Given back: 11.3

Asked: How about CCC1=C[C@@H]2CN(C1)Cc1c([nH]c3ccccc13)[C@@](C(=O)OC)(c1cc3c(cc1OC)N(C)[C@H]1[C@@](O)(C(=O)OC)[C@H](OC(C)=O)[C@]4(CC)C=CCN5CC[C@]31[C@@H]54)C2 ?
Given back: 18.6

---

Test system: NCI-H460 NSCLC
Assay explanation: NCI tumour cell line growth inhibition, 384-well format
Observed property: TGI (nM)
API: value field is a number in nM; no unit string.

Consider the reported TGI for these molecules:
Smiles repr	TGI (nM)
Cc1cncc(-c2nc(NCCc3c[nH]c4ccccc34)c3ncn(C(C)C)c3n2)c1	4530
CCC(CC)c1cc(N[C@H]2CC[C@H](N)C2)n2nccc2n1	461

Now examine the next entry.
Asked: Could you share which TGI value was measured for CC[C@@]1(O)C(=O)OCc2c1cc1n(c2=O)Cc2cc3c(CN(C)C)c(O)ccc3nc2-1 ?
Given back: 100

---

Reported TGI by item:
Test system: A498 renal
Assay explanation: NCI tumour cell line growth inhibition, 384-well format
API: value field is a number in nM; no unit string.

Consider the reported TGI for these molecules:
Smiles repr	Target desc	Value units	Recorded value
CC[C@@]1(O)C(=O)OCc2c1cc1n(c2=O)Cc2cc3c(CN(C)C)c(O)ccc3nc2-1	A498 renal	nM	255
Cc1cncc(-c2nc(NCCc3c[nH]c4ccccc34)c3ncn(C(C)C)c3n2)c1	A498 renal	nM	6390

Now examine the next entry.
Asked: Could you share which TGI value was measured for CCC1=C[C@@H]2CN(C1)Cc1c([nH]c3ccccc13)[C@@](C(=O)OC)(c1cc3c(cc1OC)N(C)[C@H]1[C@@](O)(C(=O)OC)[C@H](OC(C)=O)[C@]4(CC)C=CCN5CC[C@]31[C@@H]54)C2 ?
Given back: 2390
